- assay-name: compound effects on lung adenocarcinoma cell viability – A549, calcein-AM fluorescence, 48 h, basal, profiling panel (AID 1162); further: test concentration not given here
- experimental-context: higher = more signal
Here the recorded z-score is given for each entry.
The answer should be written as a number, with no unit following it.

Below, 3 compounds whose answers are already recorded.
C=CCN1Cc2ccccc2[C@@H]2OC(c3ccc(OCCCO)cc3)=N[C@]2(CCS(=O)(=O)c2ccccc2)C1=O; -0.251
CCCCC(=C=CC[C@@H](O)c1cccc(OCCO)c1)C[C@@H](O)c1ccccn1; -0.0385
COC(=O)[C@@]1(Cc2ccccc2)[C@H]2c3cc(C(=O)N(C)C)n(Cc4ccc(OC)c(OC)c4)c3C[C@H]2CN1C(=O)c1ccccc1; -1.29

Fill blank: measured z-score of the compound COCCOC(=O)N1C(=O)[C@@]2(c3ccccc31)[C@H](C(N)=O)[C@H]1C(=O)O[C@H](c3ccccc3)[C@H](c3ccccc3)N1[C@@H]2c1ccc(O)cc1 is ____.
0.75

Item: COCC(=C=CC[C@H](O)c1cccc(OCCO)c1)C[C@H](O)c1cc(Cl)cc(Cl)c1O
0.593

Item: Cc1ccc(S[C@]2(C(=O)NCC(C)C)CC(=O)N(Cc3cc(C(F)(F)F)cc(C(F)(F)F)c3)[C@@H]2c2ccc(CO)cc2)cc1
-0.174

Item: COC(=O)[C@@]1(Cc2ccccc2)[C@H]2c3cc(C(=O)N4CCCC4)n(Cc4ccc(O)c(OC)c4)c3C[C@H]2CN1C(=O)c1ccccc1
0.114

Item: COCCOC(=O)N1C(=O)[C@@]2(c3cc(C#Cc4ccc(OC)cc4)ccc31)[C@H](c1ccc(O)cc1)N1[C@H](c3ccccc3)[C@H](c3ccccc3)OC(=O)[C@H]1[C@@H]2C(=O)Nc1nc2ccccc2s1
-0.738

Item: C=CCC(OC(C)=O)[C@@H]1[C@@H](N(Cc2ccc(-c3cccc(C(F)(F)F)c3)o2)C(=O)Cc2ccc(OC)cc2)c2cc(OCCCO)ccc2N1C(=O)c1ccc2ccccc2c1 (some centres not stated)
-0.138

Item: O=C(NCCN1CCOCC1)[C@@H]1c2ccccc2C(=O)N(Cc2cc(C(F)(F)F)cc(C(F)(F)F)c2)[C@H]1c1ccc(CO)cc1
1.79

Item: O=C1OCCC=C[C@H]2OC34C=CCN(CCN5CCOCC5)C(=O)[C@H]3N(CCCCCO)C(=O)[C@@H]4C12 (some centres not stated)
0.478

Item: COC(=O)C(CC#Cc1ccc2c(c1)[C@]1(C(=O)N2)[C@H](c2ccccc2OCCO)N2[C@H](c3ccccc3)[C@H](c3ccccc3)OC(=O)[C@H]2[C@@H]1C(=O)O)C(=O)OC
1.45

Item: C=CC[C@]1(C(=O)N2CCOCC2)N=C(c2ccc(OCCCO)cc2)O[C@H]1c1ccccc1N=[N+]=[N-]
0.0797

Item: CN(C)C(=O)[C@]1(Cc2ccccc2)N=C(c2ccc(OCCCO)cc2)O[C@@H]1c1ccccc1N=[N+]=[N-]
-0.279

Item: CO[C@H]1O[C@H](CO)[C@@H](OC(=O)Nc2ccccc2)[C@@H]2OC(=O)[C@@H](Cc3ccc4ccccc4c3)C/C=C/C[C@H](Cc3ccc4ccccc4c3)C(=O)O[C@@H]12
0.72

Item: CS(=O)(=O)CCOC(=O)C1=CC(CCCO)=CC(C2CC2)N(Cc2cc3c(cc2Br)OCO3)C=C1C(=O)OCCS(C)(=O)=O (configuration not stated)
1.25

Item: O=C1N(CCS(=O)(=O)c2ccccc2)c2ccccc2[C@@H]2OC(c3ccc(OCCCO)cc3)=N[C@]12Cc1ccccc1
0.661
